# ASSAY TARGET: trimeric, post-fusion form of sE, the soluble fragment of dengue virus type 2 (S1 strain) envelope glycoprotein E (dengue virus type 2 S1 strain), P12823
# ASSAY REMARKS: fluorescence depolarization, labeled peptide titrated with trimeric sE
MEASURED ENDPOINT: Kd (µM)

BINDER: SSIGQMFETTMRGAKRMAILGDTAWDFGSLGGVF (modifications not checked) [fluorescently labeled version of the peptide corresponding to residues 396-429 (stem region) of deng]
MEASURED ENDPOINT: Kd
OBSERVED MEASUREMENT: 6
